- target.desc: human CXCR4 (Homo sapiens, UniProt P61073)
- Construct: expressed in transfected cells; host or cells: mouse pre-B cell line 300-19
- Sequence (P61073 whole entry): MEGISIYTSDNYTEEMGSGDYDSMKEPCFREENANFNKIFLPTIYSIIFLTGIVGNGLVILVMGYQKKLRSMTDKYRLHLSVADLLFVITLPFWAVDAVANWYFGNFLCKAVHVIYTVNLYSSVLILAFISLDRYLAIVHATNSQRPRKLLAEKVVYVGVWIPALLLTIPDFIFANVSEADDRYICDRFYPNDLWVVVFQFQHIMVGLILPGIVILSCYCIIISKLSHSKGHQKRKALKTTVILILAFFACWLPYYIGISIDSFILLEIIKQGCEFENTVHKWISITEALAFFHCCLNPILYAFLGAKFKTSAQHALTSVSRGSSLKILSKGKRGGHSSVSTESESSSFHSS
- measurement.description: Ca2+-assay: CXCR4-antagonizing activity (SDF-1 induced calcium mobilization)
- Assay type: cell-based
- settings: mouse pre-B cell line 300-19 stably transfected with human CXCR4, read-out: IC50% [nM] ± SD, CXCR4 receptor
Starred links: 1 amine or outer side, 2 acyl side, 3 side chain; linkers in the order of their positions; H or OH if unused. Positions of bridges follow the written chain, without caps; N, C: chain ends. Non-standard residues stand in square brackets, D forms with d. Residues, ends and D or L forms follow the SMILES beside them. X1 = O=C(C(O)CCN[*:1])[*:2]; Dab = NCC[C@H](N)C(=O)O

compound: C[C@@H]1NC(=O)[C@H](Cc2c[nH]cn2)NC(=O)[C@H](Cc2ccc(O)cc2)NC(=O)[C@@H]2CCCN2C(=O)[C@H]2CCCN2C(=O)[C@H](CCCCN)NC(=O)[C@H](CCC(N)=O)NC(=O)[C@H](Cc2ccc(O)cc2)NC(=O)[C@@H]2CSSC[C@H](NC1=O)C(=O)NCCC(O)C(=O)N[C@@H](C)C(=O)N1CCC[C@@H]1C(=O)N[C@@H](CCN)C(=O)N[C@@H](CCCNC(=N)N)C(=O)N[C@@H](Cc1ccc(O)cc1)C(=O)N2 (stereo partly shown) [compound 19] (cyclo(YHAC[X1]A[dP][Dab]RYCYQK[dP]P); disulfide 4-11)
target.desc: human CXCR4 (Homo sapiens, UniProt P61073)
IC50 / nM: 1.1

* * *

- measurement.description: in vitro
- Assay type: cell-based
Starred links: 1 amine or outer side, 2 acyl side, 3 side chain; linkers in the order of their positions; H or OH if unused. Positions of bridges follow the written chain, without caps; N, C: chain ends. Non-standard residues stand in square brackets, D forms with d. Residues, ends and D or L forms follow the SMILES beside them. ξ: configuration not given here. X1 = O=C(C(O)CCN[*:1])[*:2]; Dab = NCC[C@H](N)C(=O)O; ξT = CC(O)C(N)C(=O)O

compound: C[C@@H]1NC(=O)[C@H](Cc2c[nH]cn2)NC(=O)[C@H](Cc2ccc(O)cc2)NC(=O)[C@@H]2CCCN2C(=O)[C@H]2CCCN2C(=O)[C@H](CCCCN)NC(=O)[C@H](CCC(N)=O)NC(=O)[C@H](Cc2ccc(O)cc2)NC(=O)[C@@H]2CSSC[C@H](NC1=O)C(=O)NCCC(O)C(=O)N[C@@H](C)C(=O)N1CCC[C@@H]1C(=O)N[C@@H](CCN)C(=O)N[C@@H](CCCNC(=N)N)C(=O)N[C@@H](Cc1ccc(O)cc1)C(=O)N2 (some centres unmarked) [compound 19] (cyclo(YHAC[X1]A[dP][Dab]RYCYQK[dP]P); disulfide 4-11)
GI50: > 50 µM
--
compound: CC(O)C1NC(=O)[C@@H]2CSSC[C@H](NC(=O)[C@H](Cc3ccc(O)cc3)NC(=O)[C@H](CCCNC(=N)N)NC(=O)[C@H](CCN)NC(=O)[C@H]3CCCN3C(=O)[C@H](C)NC1=O)C(=O)N[C@@H](Cc1ccc(O)cc1)C(=O)N[C@@H](CCC(N)=O)C(=O)N[C@@H](CCCCN)C(=O)N1CCC[C@@H]1C(=O)N1CCC[C@H]1C(=O)N[C@@H](Cc1ccc(O)cc1)C(=O)N[C@@H](Cc1c[nH]cn1)C(=O)N[C@@H](C)C(=O)N2 (some centres unmarked) [compound 17] (cyclo(YHAC[ξT]A[dP][Dab]RYCYQK[dP]P); disulfide 4-11)
GI50: > 50 µM
